// molecules with reported IC50 on MAP/microtubule affinity-regulating kinase 3 (Homo sapiens, UniProt P27448), multi-publication
Sequence (P27448 whole entry): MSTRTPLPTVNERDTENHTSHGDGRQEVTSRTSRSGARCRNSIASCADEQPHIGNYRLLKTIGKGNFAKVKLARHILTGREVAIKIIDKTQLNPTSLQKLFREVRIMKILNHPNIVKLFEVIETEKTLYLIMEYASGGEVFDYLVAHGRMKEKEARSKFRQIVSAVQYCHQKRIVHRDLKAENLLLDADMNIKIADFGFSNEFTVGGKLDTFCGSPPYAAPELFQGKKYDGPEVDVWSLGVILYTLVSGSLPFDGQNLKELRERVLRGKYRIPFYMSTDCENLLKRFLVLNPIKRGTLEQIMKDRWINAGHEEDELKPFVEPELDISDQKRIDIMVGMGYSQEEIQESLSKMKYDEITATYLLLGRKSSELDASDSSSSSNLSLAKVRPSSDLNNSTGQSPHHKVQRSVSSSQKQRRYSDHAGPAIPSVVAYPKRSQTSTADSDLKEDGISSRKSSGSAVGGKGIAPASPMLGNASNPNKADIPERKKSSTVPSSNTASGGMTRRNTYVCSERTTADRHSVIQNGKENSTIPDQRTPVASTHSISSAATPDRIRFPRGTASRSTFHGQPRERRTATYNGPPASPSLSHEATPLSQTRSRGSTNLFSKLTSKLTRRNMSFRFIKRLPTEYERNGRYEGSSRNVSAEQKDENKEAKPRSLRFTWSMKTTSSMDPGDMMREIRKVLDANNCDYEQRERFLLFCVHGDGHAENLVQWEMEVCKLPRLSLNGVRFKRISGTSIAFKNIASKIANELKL
Please use yes (1) for IC50 under 700 nM and no (0) for everything else, ties included.

INSERT INTO assay_data (molecule, qualitative_label) VALUES
  ('CC[C@H](C)N1C(=O)C(C)(C)c2cnc(Nc3ccc(S(C)(=O)=O)cc3)nc21', 'yes (1)'),
  ('CC[C@H](C)N1C(=O)C(C)(C)c2cnc(Nc3ccc(-c4nnc(C)[nH]4)cc3)nc21', 'yes (1)'),
  ('Cn1cc(Nc2ncc(C3CC3)c(NCCCNC(=O)C3CCC3)n2)cn1', 'yes (1)'),
  ('CC[C@H](C)N1C(=O)C2(CC2)c2cnc(Nc3cccnc3)nc21', 'yes (1)'),
  ('Oc1cccc(Nc2ccnc3[nH]c4ccccc4c23)c1', 'no (0)'),
  ('CC(CN(C)C)Oc1ccc(Cl)cc1NC(=O)Nc1cnc(C#N)cn1 (configuration not stated)', 'no (0)');
